tested on: Potassium voltage-gated channel subfamily H member 2, brain isoform KCNH2 3.1 (human); experiment: qHTS for Inhibitors of KCHN2 3.1: Mutant qHTS; details: U2OS KCNH2 3.1, thallium flux FluxOr; stronger effect = lower value; further: on the % scale 0 is the no-effect control and ±100 the full control effect
Out of some 340,000 compounds screened, about 3,300 (0.97%) were called active. The list comes from a sample in which actives are over-represented; it also holds close analogues and randomly drawn compounds.

- compound: "Cc1ccc(-n2c(SCC(=O)Nc3ccc4c(c3)OCO4)nnc2-c2ccccn2)cc1"
  activity change / %: 1.11
- compound: "Cc1nn(-c2ncccn2)c2c1C(=O)CC(C)(C)C2Br (configuration not stated)"
  activity change / %: -151
- compound: "CC1=C(N2CCN(c3ncccn3)CC2)CCC1=O"
  activity change / %: -6.3
- compound: "CSc1nnc(CNC(=O)c2ccccc2)n1-c1ccc(F)cc1"
  activity change / %: -88.2
- compound: "CN1CCN(C2Cc3ccc(Cl)cc3Sc3ccc(F)cc32)CC1 (configuration not stated)"
  activity change / %: -75.9
- compound: "Cc1ccc2nc(-c3ccc(NC(=O)c4cccnc4)cc3)oc2c1"
  activity change / %: -11.7
- compound: "COc1ccc(NC(=O)c2cc(-c3ccc(C)o3)nc3ccccc23)cc1"
  activity change / %: -28.1
- compound: "COc1ccc2[nH]c(C)c(CCN(Cc3cccs3)C(=S)Nc3ccccc3OC)c2c1"
  activity change / %: -8.67
- compound: "CCn1c(CN2C(=O)CSc3ccccc32)n[nH]c1=S"
  activity change / %: -86.9
- compound: "CN(C)/C=C(/C(=O)c1ccccc1Cl)S(C)(=O)=O"
  activity change / %: -180
- compound: "COC(=O)c1cccc(NC(=O)CN2CCC(NC(=O)c3cc(OC)c(OC)c(OC)c3)CC2)c1"
  activity change / %: -11.4
- compound: "COc1cccc(NC(=S)N(CCc2c(C)[nH]c3ccccc23)Cc2ccco2)c1"
  activity change / %: -11
- compound: "COc1ccccc1OCCNC(=O)c1cc([N+](=O)[O-])cc([N+](=O)[O-])c1"
  activity change / %: -8.81
- compound: "COc1cccc(/C=C2\\SC(=S)N(CCCC(=O)N3CCOCC3)C2=O)c1"
  activity change / %: -1.71
- compound: "CN(C)/C=C(/C(=O)c1ccccc1)S(=O)(=O)c1ccc(Cl)cc1"
  activity change / %: 7.64
- compound: "Cc1[nH]c2ccccc2c1CCN(Cc1cccs1)C(=S)NC(C)(C)C"
  activity change / %: -70.5
- compound: "O=C(Nc1cccc2ccccc12)NC1CC1"
  activity change / %: -0.285
- compound: "Cc1ccc(-n2c(SCC(=O)Nc3ccc4c(c3)OCO4)nnc2-c2ccoc2C)cc1"
  activity change / %: -79.7
- compound: "Cc1nn(-c2ccccc2)c2c1C(=O)NC(=O)C(C)(C)C2"
  activity change / %: -21.5
- compound: "C=CCNC(=O)/C(=C\\c1cccc([N+](=O)[O-])c1)NC(=O)c1ccccc1"
  activity change / %: -8.85
- compound: "COc1cc(C(=O)NCCOC(=O)c2cccc(N(C)C)c2)cc(OC)c1OC"
  activity change / %: -77.8
- compound: "CN1OC[C@@H]2CN[C@H](c3ccc(-c4ccccc4)cc3)C[C@@H]21"
  activity change / %: -8.66
